# Test system: Fusarium verticillioides
# TEST DESCRIPTION: Antimicrobial activity against Fusarium verticillioides after 48 hrs by broth microdilution assay
# Type: functional
Please go through the items and note down their MIC.
Please don't drop the unit; write it after the number.

# example entries with known answers
# COMPOUND, TEST RESULT
measured = [
    ("CC[C@@H]([C@H](C)O)n1ncn(-c2ccc(N3CCN(c4ccc(OC[C@@H]5CO[C@@](Cn6cncn6)(c6ccc(F)cc6F)C5)cc4)CC3)cc2)c1=O", "0.46 µg/mL"),
    ("C[C@@H](c1ncncc1F)[C@](O)(Cn1cncn1)c1ccc(F)cc1F", "1.74 µg/mL"),
    ("C[C@@H]1[C@H](O)[C@@H](C)/C=C/C=C/C=C/C=C/C=C/C=C/C=C/[C@H](O[C@@H]2O[C@H](C)[C@@H](O)[C@H](N)[C@@H]2O)C[C@@H]2O[C@](O)(C[C@@H](O)C[C@@H](O)[C@H](O)CC[C@@H](O)C[C@@H](O)CC(=O)O[C@H]1C)C[C@H](O)[C@H]2C(=O)O", "1.53 µg/mL"),
]

Could you now look at the following compound, please?
Item under review: CCC(C)n1ncn(-c2ccc(N3CCN(c4ccc(OCC5COC(Cn6cncn6)(c6ccc(Cl)cc6Cl)O5)cc4)CC3)cc2)c1=O (centres undefined) . Reported MIC?
3.33 µg/mL
